TARGET_UNDER_TEST: human CB1 receptor (Homo sapiens, UniProt P21554)
Construct: expressed in transfected cells; host or cells: SK-N-MC cells, stably transfected with pcDNA3 CB-1 (human); semi-purified membrane pellet
Sequence (P21554 whole entry): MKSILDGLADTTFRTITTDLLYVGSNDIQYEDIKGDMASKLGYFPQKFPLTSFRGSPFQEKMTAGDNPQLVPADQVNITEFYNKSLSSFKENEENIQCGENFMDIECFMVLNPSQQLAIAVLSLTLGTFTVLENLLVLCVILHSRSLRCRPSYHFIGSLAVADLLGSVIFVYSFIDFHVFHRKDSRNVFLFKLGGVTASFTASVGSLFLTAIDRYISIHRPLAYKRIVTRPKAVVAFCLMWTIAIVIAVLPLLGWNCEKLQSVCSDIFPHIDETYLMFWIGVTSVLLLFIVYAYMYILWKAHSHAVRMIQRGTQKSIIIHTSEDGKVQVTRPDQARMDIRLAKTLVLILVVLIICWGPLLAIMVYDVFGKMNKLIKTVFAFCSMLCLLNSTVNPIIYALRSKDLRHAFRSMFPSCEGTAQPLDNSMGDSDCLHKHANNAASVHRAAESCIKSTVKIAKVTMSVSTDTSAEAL
ASSAY_NOTES: biochemical
Assay type: binding
REPORTED_PROPERTY: IC50 (nM)
Express your answer in nM, writing the number without its unit.

Worked cases, IC50 given:
O=C(NCC1CCCCC1)c1nn(Cc2ccccc2)c2c1CCCC2 [compound 189]; 10
CC(NC(=O)c1nn(Cc2ccccc2)c2c1CCCC2c1ccccc1)C1CCCCC1 (centres unmarked) [compound 267]; 150
C[C@@H](NC(=O)c1nn(-c2ccc(Cl)cc2Cl)c2c1CCC/C2=C\c1ccc(Br)o1)C1CCCCC1 [compound 398]; 48
O=C(Nc1nn(C2CCCCC2)c2c1CCCC2)C12CC3CC(CC(C3)C1)C2 [compound 179]; 7300

Sure, the documented IC50 for COC1CCCc2c(C(=O)NC(C)C34CC5CC(CC(C5)C3)C4)nn(C3CCCCC3)c21 (centres unmarked) [compound 161] is 5230

Cited source: patent US7452997B2
